RECORDED METRIC: melting point

Past entries and their recorded results:
{"ITEM SMILES": "COC(=O)c1ccc(-c2c[nH]c(-c3ccc4c(c3)C(C)(C)CCC4(C)C)c2)cc1", "RECORDED METRIC": "melting point", "RESULT": "174 to 175 °C"}
{"ITEM SMILES": "Cn1cccc1C(=O)c1sc(Nc2ccc3[nH]cnc3c2)nc1N", "RECORDED METRIC": "melting point", "RESULT": "284 to 285 °C"}
{"ITEM SMILES": "COc1ccc(CNC(=O)C(=O)NCCc2ccccn2)cc1", "RECORDED METRIC": "melting point", "RESULT": "156 to 158 °C"}

query: Give the reported value of melting point for this record: Cc1cc(C)c2nc(C)n(Cc3ccc(NCC4CCN(C5CCOCC5)CC4)cc3)c2n1
result: 148 to 150 °C

query: Give the reported value of melting point for this record: Cn1c2c(c3ccccc3c1=O)C(=O)c1cc(OCc3ccccc3)c(OCc3ccccc3)cc1-2
result: 198 to 200 °C

----------
A collection of compounds and their measured melting point

{"COMPOUND": "CC(=O)NCC1CN(c2ccc(N3CCC(C(C#N)CO)CC3)c(F)c2)C(=O)O1 (stereo not drawn)", "melting point": "136 to 138 °C"}
{"COMPOUND": "COC(=O)COc1c(C)cc(SCc2ccc(-c3ccc(C(F)(F)F)cn3)cc2)c2c1CCCO2", "melting point": "156 to 157 °C"}
{"COMPOUND": "Cc1c(C)c2c(c(C)c1O)C(c1ccc(N3CCOCC3)cc1)C(C)(C)O2 (stereo not drawn)", "melting point": "91 to 93 °C"}

query: Give the reported value of melting point for this record: CCC1(O)CC(=O)OCc2c1cc1n(c2=O)Cc2cc3cccc(F)c3nc2-1 (stereo not drawn)
result: > 250 °C

query: Give the reported value of melting point for this record: Cc1c(SCc2ccco2)ccnc1CSc1ccncc1
result: 126 to 128 °C

query: Give the reported value of melting point for this record: Cc1c(C)c(N2CCN(c3ccc(CN(C)C)cc3)CC2)c(C)c2c1OC(C)(C)C2
result: 134 to 138 °C

query: Give the reported value of melting point for this record: O=[N+]([O-])C(CO)(CO)CCc1ccc(Sc2cccc(OCc3ccccc3)c2)cc1Cl
result: 69 to 70 °C

query: Give the reported value of melting point for this record: CCCCCc1cc2c(nc(O)n2Cc2cccnc2)c(N)n1
result: 243 to 245 °C

query: Give the reported value of melting point for this record: COc1ccc2nccc(CCC[C@@H]3CCN(CC#Cc4ccccc4)C[C@@H]3C(=O)O)c2c1
result: 166 °C

query: Give the reported value of melting point for this record: O=C(NC1CCC(CCN2CCN(c3nccc4c3OCC4)CC2)CC1)C1CCOC1 (stereo not drawn)
result: 195 °C

query: Give the reported value of melting point for this record: O=S(=O)(Cc1nnc(-c2ccc3c(c2)CCO3)o1)c1cccc(F)c1
result: 93 to 94 °C

query: Give the reported value of melting point for this record: CC(C)(C)N(NC(=O)c1cncc(Br)c1)C(=O)c1ccc(Cl)cc1
result: 193 to 197 °C

query: Give the reported value of melting point for this record: N#Cc1ccc(CC(NC(=O)CC(NS(=O)(=O)c2ccc3ccccc3c2)c2ccccc2)C(=O)N2CCCC2)cc1 (stereo not drawn)
result: 195 to 200 °C

query: Give the reported value of melting point for this record: COc1cc2c(cc1OC)CN(CCCOc1ccc(NC(=O)c3nc4cc(C)c(C)cc4nc3OC)cc1)CC2
result: 158 °C

query: Give the reported value of melting point for this record: CCOC(=O)CSc1nc(Cl)cc(-c2ccccc2)n1
result: 82 to 84 °C

query: Give the reported value of melting point for this record: Cn1ncc2c1CS(=O)(=O)c1cn[nH]c1-2
result: > 270 °C

query: Give the reported value of melting point for this record: C=CCO[C@H]1[C@@H](OCc2ccccc2)[C@@H](OCc2ccccc2)[C@H](OCc2ccccc2)[C@@H](OCc2ccccc2)[C@@]1(CCC)OC(=O)CCC (racemic)
result: 115 °C

Hello, the source for this data is a melting point compilation (Tetko et al.; mined from patent text by program, amines drawn as free bases though some values may be those of a salt), in case you need it.
